Listed here: items and their measured MIC.
System: Pseudomonas aeruginosa ATCC 27853
ASSAY NAME: ≥ marks a high value that may be exact or a test limit, other limits are often not marked, values filed in µg/mL are converted to µM

These recorded examples may help you get a feel for the data.
{"STRUCTURE SMILES STRING": "CC[C@H](C)[C@H](NC(=O)[C@@H](NC(=O)[C@H](CO)NC(=O)[C@H](C)NC(=O)[C@@H](NC(=O)[C@H](CCCCN)NC(=O)[C@H](CCCCN)NC(=O)[C@@H](NC(=O)[C@@H](NC(=O)[C@H](CCC(=O)O)NC(=O)[C@H](Cc1ccccc1)NC(=O)[C@H](CC(C)C)NC(=O)CN)C(C)C)[C@@H](C)CC)C(C)C)C(C)C)C(=O)NCC(=O)NCC(=O)N[C@@H](CC(C)C)C(=O)O", "MIC": "> 19.6 µM"}
{"STRUCTURE SMILES STRING": "CC[C@H](C)[C@H](NC(=O)[C@H](CC(=O)O)NC(=O)[C@H](Cc1ccccc1)NC(=O)[C@H](CC(C)C)NC(=O)CN)C(=O)N[C@H](C(=O)N[C@@H](CCCCN)C(=O)N[C@@H](CCCCN)C(=O)N[C@H](C(=O)N[C@H](C(=O)NCC(=O)N[C@@H](C)C(=O)N[C@@H](CC(C)C)C(=O)NCC(N)=O)C(C)C)C(C)C)C(C)C", "MIC": "> 23 µM"}
{"STRUCTURE SMILES STRING": "CC(C)C[C@H](NC(=O)[C@H](CC(C)C)NC(=O)[C@H](CCCCN)NC(=O)[C@H](C)NC(=O)[C@H](C)NC(=O)[C@H](C)NC(=O)[C@H](CCCCN)NC(=O)[C@H](C)NC(=O)[C@H](C)NC(=O)[C@H](C)NC(=O)[C@H](CCCCN)NC(=O)[C@H](Cc1c[nH]c2ccccc12)NC(=O)[C@@H](N)CC(C)C)C(N)=O", "MIC": "4 µM"}
{"STRUCTURE SMILES STRING": "CC(C)C[C@H](NC(=O)[C@H](CC(C)C)NC(=O)[C@H](CC(C)C)NC(=O)[C@@H]1CCCN1C(=O)[C@H](CCCN=C(N)N)NC(=O)[C@H](CCCN=C(N)N)NC(=O)CN)C(=O)N[C@@H](CCCN=C(N)N)C(=O)N[C@@H](C)C(=O)N[C@@H](CCCN=C(N)N)C(N)=O", "MIC": "> 207 µM"}
{"STRUCTURE SMILES STRING": "CC[C@H](C)[C@H](NC(=O)[C@H](CC(C)C)NC(=O)[C@H](CC(C)C)NC(=O)CNC(=O)[C@H](CCCCN)NC(=O)[C@H](CC(C)C)NC(=O)[C@H](CCCCN)NC(=O)[C@@H]1CCCN1C(=O)[C@H](CC(C)C)NC(=O)[C@H](CC(C)C)NC(=O)[C@H](CC(C)C)NC(=O)[C@H](CCCCN)NC(=O)[C@H](CC(C)C)NC(=O)[C@H](CC(C)C)NC(=O)[C@H](CCCCN)NC(=O)[C@@H](N)Cc1ccc(O)cc1)C(=O)N[C@@H](CCCCN)C(=O)N[C@@H](CC(C)C)C(N)=O", "MIC": "9.39 µM"}

In: I am curious: what MIC value has been reported for CC[C@H](C)[C@H](NC(=O)CNC(=O)[C@H](CCSC)NC(=O)[C@@H](NC(=O)[C@H](CC(=O)O)NC(=O)[C@@H](N)Cc1ccccc1)C(C)C)C(=O)N[C@H](C(=O)N[C@@H](CCCCN)C(=O)N[C@@H](CCCCN)C(=O)N[C@H](C(=O)N[C@@H](C)C(=O)N[C@@H](CO)C(=O)N[C@@H](C)C(=O)N[C@@H](CC(C)C)C(N)=O)[C@@H](C)CC)[C@@H](C)CC ?
Out: > 30 µM

Hello, the source for this data is DBAASP, in case you need it.
